All values here come from paper PMC9482650.

- system.name: T1, RHPN1, Q8TCX5
- T1 sequence (Q8TCX5 508-602, limits assumed, looked up): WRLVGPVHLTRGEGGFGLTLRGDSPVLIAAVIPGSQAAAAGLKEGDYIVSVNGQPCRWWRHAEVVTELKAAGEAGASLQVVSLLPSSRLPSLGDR
- test.details: holdup assay
- Parameters: key: below the threshold = too weak to quantify, mostly under pKd 3.1 to 4
- details: plain residues with an end cap or a label only (N-terminal biotin on a linker: ado-ado)
// pKd lookup, one value per entry
No unit in the answer, please; the number alone is enough.

Entry under review: TNSKQGETTV [FZD1, Q9UP38] . Reported pKd?
4.14

Entry under review: SSSVNVSSNL [CXCR1, P25024] . Reported pKd?
3.67

Entry under review: PLPPEEESWV [GAS2L2, Q8NHY3] . Reported pKd?
4.43

Now consider a different binder.
Entry under review: KIEDVEITLV [FCHSD2, O94868] . Reported pKd?
4.76
